Ref: ChEMBL document CHEMBL3885861

Organism: Rattus norvegicus
Experiment: Open TG-GATES - Regimen: Single
Assay type: toxicity, organism-based, Sprague-Dawley
Parameters: regimen Single, gender Male, age 6 weeks
Settings: in vivo, po, 300 mg/kg, 9 h, tissue Plasma, route gavage, dose level Middle
endpoint.label: TC (mg/dL)
One number for each entry, in mg/dL.

As a guide, the following entries are already answered.
CN/C(=N/CCSCc1nc[nH]c1C)NC#N [CIMETIDINE] | 72.4
Cc1nnc2n1-c1ccc(Cl)cc1C(c1ccccc1Cl)=NC2 [TRIAZOLAM] | 74.2
O=C(OC[C@H]1O[C@@H](OC(=O)c2cc(O)c(O)c(OC(=O)c3cc(O)c(O)c(O)c3)c2)[C@H](OC(=O)c2cc(O)c(O)c(OC(=O)c3cc(O)c(O)c(O)c3)c2)[C@@H](OC(=O)c2cc(O)c(O)c(OC(=O)c3cc(O)c(O)c(O)c3)c2)[C@@H]1OC(=O)c1cc(O)c(O)c(OC(=O)c2cc(O)c(O)c(O)c2)c1)c1cc(O)c(O)c(OC(=O)c2cc(O)c(O)c(O)c2)c1 [TANNIC ACID] | 70.4
COC(=O)C1=C(C)NC(C)=C(C(=O)OC)C1c1ccccc1[N+](=O)[O-] [NIFEDIPINE] | 91

# evaluate next
## Input Given the molecule CNC(=C[N+](=O)[O-])NCCSCc1ccc(CN(C)C)o1 [RANITIDINE] , what is its reported TC?
## Output 76.4

====

Organism: Rattus norvegicus
Test: Open TG-GATES - Regimen: Daily Repeat
Assay type: toxicity, organism-based, Sprague-Dawley
Parameters: regimen Daily Repeat, gender Male, age 6 weeks
Details: in vivo, po, 100 mg/kg, […], tissue Plasma, route gavage, dose level Low, time 28 day
Values of IP greater than or equal to 7 mg/dL map to fulfilled; values below map to not fulfilled.

Worked examples follow.
CCOc1ccc(NC(C)=O)cc1 [PHENACETIN] | not fulfilled
COC(=O)C1=C(C)NC(C)=C(C(=O)OC)C1c1ccccc1[N+](=O)[O-] [NIFEDIPINE] | not fulfilled
O=C(OC[C@H]1O[C@@H](OC(=O)c2cc(O)c(O)c(OC(=O)c3cc(O)c(O)c(O)c3)c2)[C@H](OC(=O)c2cc(O)c(O)c(OC(=O)c3cc(O)c(O)c(O)c3)c2)[C@@H](OC(=O)c2cc(O)c(O)c(OC(=O)c3cc(O)c(O)c(O)c3)c2)[C@@H]1OC(=O)c1cc(O)c(O)c(OC(=O)c2cc(O)c(O)c(O)c2)c1)c1cc(O)c(O)c(OC(=O)c2cc(O)c(O)c(O)c2)c1 [TANNIC ACID] | fulfilled
Cc1nnc2n1-c1ccc(Cl)cc1C(c1ccccc1Cl)=NC2 [TRIAZOLAM] | not fulfilled

Could you now look at the following compound, please?
## Input Dear colleague, could you confirm whether CNC(=C[N+](=O)[O-])NCCSCc1ccc(CN(C)C)o1 [RANITIDINE] has IP at or above 7 mg/dL?
## Output not fulfilled

====

Species on record: Rattus norvegicus
Experiment: Open TG-GATES - Regimen: Daily Repeat
Type: toxicity, organism-based, Sprague-Dawley
Set-up: regimen Daily Repeat, gender Male, age 6 weeks
Details: in vivo, po, 0 mg/kg, 72 h, tissue Blood, route gavage, dose level Control, time 3 day
endpoint.label: APTT (s)
Answers are plain numbers, in s.

As a guide, the following entries are already answered.
COC(=O)C1=C(C)NC(C)=C(C(=O)OC)C1c1ccccc1[N+](=O)[O-] | 16.7
CCCc1cc(=O)[nH]c(=S)[nH]1 | 16.3
Nc1c2c(nc3ccccc13)CCCC2 | 21.1
Cc1nnc2n1-c1ccc(Cl)cc1C(c1ccccc1Cl)=NC2 | 19.2
O=C(OC[C@H]1O[C@@H](OC(=O)c2cc(O)c(O)c(OC(=O)c3cc(O)c(O)c(O)c3)c2)[C@H](OC(=O)c2cc(O)c(O)c(OC(=O)c3cc(O)c(O)c(O)c3)c2)[C@@H](OC(=O)c2cc(O)c(O)c(OC(=O)c3cc(O)c(O)c(O)c3)c2)[C@@H]1OC(=O)c1cc(O)c(O)c(OC(=O)c2cc(O)c(O)c(O)c2)c1)c1cc(O)c(O)c(OC(=O)c2cc(O)c(O)c(O)c2)c1 | 17.1

Parameters: items (list). Returns: APTT for each item.
1. Brc1ccccc1
2. CC(C)NNC(=O)c1ccncc1

## Output
15.5
21.8

====

Species on record: Rattus norvegicus
Experiment: Open TG-GATES - Regimen: Single
Assay type: toxicity, organism-based, Sprague-Dawley
Set-up: regimen Single, gender Male, age 6 weeks
Details: in vivo, po, 100 mg/kg, 24 h, tissue Kidney, route gavage, dose level Low
endpoint.label: KIDNEY_TOTAL (g)
Give bare numbers, in g.

CN/C(=N/CCSCc1nc[nH]c1C)NC#N [CIMETIDINE] | 2.1
Cc1nnc2n1-c1ccc(Cl)cc1C(c1ccccc1Cl)=NC2 [TRIAZOLAM] | 1.8

## Input Given the compound COC(=O)C1=C(C)NC(C)=C(C(=O)OC)C1c1ccccc1[N+](=O)[O-] [NIFEDIPINE] , what is its reported KIDNEY_TOTAL?
## Output 1.8

====

Species: Rattus norvegicus
Experiment: Open TG-GATES - Regimen: Daily Repeat
Assay type: toxicity, organism-based, Sprague-Dawley
Design: regimen Daily Repeat, gender Male, age 6 weeks
Settings: in vivo, po, 300 mg/kg, […], tissue Blood, route gavage, dose level Middle, time 14 day
Please go through the items and note down their Ret.
Give bare numbers, in %.

O=C(OC[C@H]1O[C@@H](OC(=O)c2cc(O)c(O)c(OC(=O)c3cc(O)c(O)c(O)c3)c2)[C@H](OC(=O)c2cc(O)c(O)c(OC(=O)c3cc(O)c(O)c(O)c3)c2)[C@@H](OC(=O)c2cc(O)c(O)c(OC(=O)c3cc(O)c(O)c(O)c3)c2)[C@@H]1OC(=O)c1cc(O)c(O)c(OC(=O)c2cc(O)c(O)c(O)c2)c1)c1cc(O)c(O)c(OC(=O)c2cc(O)c(O)c(O)c2)c1 | 5.5
CNC(=C[N+](=O)[O-])NCCSCc1ccc(CN(C)C)o1 | 3.9
Cc1nnc2n1-c1ccc(Cl)cc1C(c1ccccc1Cl)=NC2 | 4.9
CN/C(=N/CCSCc1nc[nH]c1C)NC#N | 4.3

Parameters: items (list). Returns: Ret for each item.
1. COC(=O)C1=C(C)NC(C)=C(C(=O)OC)C1c1ccccc1[N+](=O)[O-]
2. CCOc1ccc(NC(C)=O)cc1

## Output
4.9
6.5

====

Species: Rattus norvegicus
Assay: Open TG-GATES - Regimen: Single
Format: toxicity, organism-based, Sprague-Dawley
Design: regimen Single, gender Male, age 6 weeks
Details: in vivo, po, 300 mg/kg, 24 h, tissue Plasma, route gavage, dose level Middle
Please go through the items and note down their Cl.
Numbers only, in meq/L.

As a guide, the following entries are already answered.
CNC(=C[N+](=O)[O-])NCCSCc1ccc(CN(C)C)o1 | 102.2
CN/C(=N/CCSCc1nc[nH]c1C)NC#N | 102.2
O=C(OC[C@H]1O[C@@H](OC(=O)c2cc(O)c(O)c(OC(=O)c3cc(O)c(O)c(O)c3)c2)[C@H](OC(=O)c2cc(O)c(O)c(OC(=O)c3cc(O)c(O)c(O)c3)c2)[C@@H](OC(=O)c2cc(O)c(O)c(OC(=O)c3cc(O)c(O)c(O)c3)c2)[C@@H]1OC(=O)c1cc(O)c(O)c(OC(=O)c2cc(O)c(O)c(O)c2)c1)c1cc(O)c(O)c(OC(=O)c2cc(O)c(O)c(O)c2)c1 | 103.8
Cc1nnc2n1-c1ccc(Cl)cc1C(c1ccccc1Cl)=NC2 | 102.8

## Input Given the compound "COC(=O)C1=C(C)NC(C)=C(C(=O)OC)C1c1ccccc1[N+](=O)[O-]" , what is its reported Cl?
## Output 107.4

====

Species: Rattus norvegicus
Assay: Open TG-GATES - Regimen: Single
Assay type: toxicity, organism-based, Sprague-Dawley
Design: regimen Single, gender Male, age 6 weeks
Conditions: in vivo, po, 300 mg/kg, 24 h, route gavage, dose level Middle
Please go through the items and note down their TERMINAL_BW.

As a guide, the following entries are already answered.
COC(=O)C1=C(C)NC(C)=C(C(=O)OC)C1c1ccccc1[N+](=O)[O-] [NIFEDIPINE] | 198.5 g
CNC(=C[N+](=O)[O-])NCCSCc1ccc(CN(C)C)o1 [RANITIDINE] | 230.2 g
O=C(OC[C@H]1O[C@@H](OC(=O)c2cc(O)c(O)c(OC(=O)c3cc(O)c(O)c(O)c3)c2)[C@H](OC(=O)c2cc(O)c(O)c(OC(=O)c3cc(O)c(O)c(O)c3)c2)[C@@H](OC(=O)c2cc(O)c(O)c(OC(=O)c3cc(O)c(O)c(O)c3)c2)[C@@H]1OC(=O)c1cc(O)c(O)c(OC(=O)c2cc(O)c(O)c(O)c2)c1)c1cc(O)c(O)c(OC(=O)c2cc(O)c(O)c(O)c2)c1 [TANNIC ACID] | 201.5 g
CN/C(=N/CCSCc1nc[nH]c1C)NC#N [CIMETIDINE] | 223.6 g

## Input Given the compound Cc1nnc2n1-c1ccc(Cl)cc1C(c1ccccc1Cl)=NC2 [TRIAZOLAM] , what is its reported TERMINAL_BW?
## Output 207.4 g
